Test system: melanoma cell line Sk-Mel-28
Experiment: Cytotoxicity in cancer cell lines (CellTiter-Glo), Sk-Mel-28
Type: cell-based
Settings: Homo sapiens, SK-MEL-28, 48 h, read-out: Cytotoxicity EC50 at 48 hours, Sk mel
Observable: EC50 (µM)
Provide only the numeric value, understood in µM.

Some entries whose results are on file:
>  <Compound>
O=C(Nc1ccc2ccccc2c1)OC1C=CS(=O)(=O)C1 (centres unmarked)

>  <EC50, µM>
38

$$$$
>  <Compound>
O=C(COC1C=CS(=O)(=O)C1)c1ccc(-c2ccccc2)cc1 (centres unmarked)

>  <EC50, µM>
71

$$$$

Form: compound = O=C(Nc1ccc(-c2ccccc2)cc1)OC1C=CS(=O)(=O)C1 (centres unmarked) ; EC50 = 66
